Provide the recorded Wheat plant response rating for the entries that follow.
- System: wheat
- assay.protocol: Test B postemergence herbicide test
- Assay type: in vivo, Triticum aestivum
- Set-up: key: 0 = no effect, 100 = complete control
- setup.conditions: postemergence, 125 g ai/ha; visual rating, scale 0 (no effect) to 100 (complete control)
API note: the answer field is a bare number with no unit suffix.

**Query** Indicate the recorded Wheat plant response rating value for this molecule: CCn1nc(C(C)(C)C)cc1C(=O)Nc1cccc2c1CCN(C1CC1)C2=O [Compound 64]
**Result** 0

**Query** Indicate the recorded Wheat plant response rating value for this molecule: CCNC(=O)c1cc(NC(=O)c2cc(C(C)(C)C)nn2CC)ccc1C [Compound 68]
**Result** 0

**Query** Indicate the recorded Wheat plant response rating value for this molecule: CCN(CC)C(=O)c1cc(NC(=O)c2cc(C(C)(C)C)nn2CC)c(F)cc1F [Compound 253]
**Result** 20

**Query** Indicate the recorded Wheat plant response rating value for this molecule: CCCOC(=O)c1cccc(NC(=O)c2cc(C(C)(C)C)nn2CC)c1C [Compound 90]
**Result** 10

**Query** Indicate the recorded Wheat plant response rating value for this molecule: CCON=C(C)c1cccc(NC(=O)c2cc(C(C)(C)C)nn2C)c1 [Compound 105]
**Result** 0
